System: FMOC25_2 (patient-derived low-grade serous ovarian cancer cells)
method_notes: drug sensitivity score (DSS3, normalised partial AUC of % inhibition dose-response) (DSS (score)); higher = more sensitive (stronger inhibition of viability); extreme values may be limits of the assay
experimental_parameters: 72 h; library: FO5A; assay format: 2D, 384-well, CellTiter-Glo
Recorded drug sensitivity score by entry

>  <line_notation>
Cc1cn(-c2cc(NC(=O)c3ccc(C)c(Nc4nccc(-c5cccnc5)n4)c3)cc(C(F)(F)F)c2)cn1

>  <assayed_target>
FMOC25_2

>  <drug sensitivity score>
1.5

$$$$
>  <line_notation>
Cc1cc2c(F)c(Oc3ncnn4cc(OC[C@@H](C)O)c(C)c34)ccc2[nH]1

>  <assayed_target>
FMOC25_2

>  <drug sensitivity score>
0

$$$$
>  <line_notation>
Cn1cc(-c2cnn3c(N)c(Br)c([C@@H]4CCCNC4)nc23)cn1

>  <assayed_target>
FMOC25_2

>  <drug sensitivity score>
2.8

$$$$
>  <line_notation>
COc1cc(Nc2ncc3c(n2)-c2ccc(Cl)cc2C(c2c(F)cccc2OC)=NC3)ccc1C(=O)O

>  <assayed_target>
FMOC25_2

>  <drug sensitivity score>
2.3

$$$$
>  <line_notation>
CO[C@@]12[C@H](COC(N)=O)C3=C(C(=O)C(C)=C(N)C3=O)N1C[C@@H]1N[C@@H]12

>  <assayed_target>
FMOC25_2

>  <drug sensitivity score>
3.7

$$$$
>  <line_notation>
CC(C)Nc1cc(-c2c[nH]c(C(=O)N[C@H](CO)c3cccc(Cl)c3)c2)c(Cl)cn1

>  <assayed_target>
FMOC25_2

>  <drug sensitivity score>
10.6

$$$$
>  <line_notation>
Cc1cccc(-c2[nH]c(CNc3ccccc3F)nc2-c2ccc3ncnn3c2)n1

>  <assayed_target>
FMOC25_2

>  <drug sensitivity score>
0

$$$$
>  <line_notation>
CCNc1nc(Nc2cc(F)c(C(=O)N3CCOCC3)cc2OC)ncc1C(F)(F)F

>  <assayed_target>
FMOC25_2

>  <drug sensitivity score>
0

$$$$
>  <line_notation>
N#CC[C@H](C1CCCC1)n1cc(-c2ncnc3[nH]ccc23)cn1

>  <assayed_target>
FMOC25_2

>  <drug sensitivity score>
0

$$$$
>  <line_notation>
CN1CCC(CNc2ccc3ncc(-c4cccc(OC(F)(F)F)c4)n3n2)CC1

>  <assayed_target>
FMOC25_2

>  <drug sensitivity score>
7.4

$$$$
>  <line_notation>
Cc1cc(Nc2cc(N3CCN(C)CC3)nc(Sc3ccc(NC(=O)C4CC4)cc3)n2)n[nH]1

>  <assayed_target>
FMOC25_2

>  <drug sensitivity score>
3.6

$$$$

* * *

Recorded drug sensitivity score by entry
System: FMOC09 (patient-derived high-grade serous ovarian cancer cells)
method_notes: drug sensitivity score (DSS3, normalised partial AUC of % inhibition dose-response) (DSS (score)); higher = more sensitive (stronger inhibition of viability); extreme values may be limits of the assay
experimental_parameters: 72 h; library: FO5A; assay format: 2D, 384-well, CellTiter-Glo
recorded_endpoint: drug sensitivity score

>  <molecule>
CO[C@H]1C(=O)[C@]2(C)[C@@H](OC)C[C@H]3OC[C@@]3(OC(C)=O)[C@H]2[C@H](OC(=O)c2ccccc2)[C@]2(O)C[C@H](OC(=O)[C@H](O)[C@@H](NC(=O)OC(C)(C)C)c3ccccc3)C(C)=C1C2(C)C

>  <recorded_endpoint>
drug sensitivity score

>  <recorded_result>
13.5

$$$$
>  <molecule>
C=CCN(/C=C1/C(=O)O[C@H](COC)[C@@]2(C)C1=C(O)C(=O)C1=C2[C@H](OC(C)=O)C[C@]2(C)C(=O)CC[C@@H]12)CC=C

>  <recorded_endpoint>
drug sensitivity score

>  <recorded_result>
0

$$$$
>  <molecule>
NC[C@@](O)(c1ccc(Cl)cc1)c1ccc(-c2cn[nH]c2)cc1

>  <recorded_endpoint>
drug sensitivity score

>  <recorded_result>
2.6

$$$$
>  <molecule>
C=CCn1c(=O)c2cnc(Nc3ccc(N4CCN(C)CC4)cc3)nc2n1-c1cccc(C(C)(C)O)n1

>  <recorded_endpoint>
drug sensitivity score

>  <recorded_result>
7.9

$$$$
>  <molecule>
CCn1c(C(=O)N(C2CC2)C2CC2)cc2c3c(ncn3C)c(Nc3cc(C)n(C)n3)nc21

>  <recorded_endpoint>
drug sensitivity score

>  <recorded_result>
2.1

$$$$
>  <molecule>
CNC(=O)c1cccc2cc(Oc3ccnc4cc(OCC5(N)CC5)c(OC)cc34)ccc12

>  <recorded_endpoint>
drug sensitivity score

>  <recorded_result>
1.2

$$$$
>  <molecule>
CO[C@H]1C[C@@H]2CC[C@@H](C)[C@@](O)(O2)C(=O)C(=O)N2CCCC[C@H]2C(=O)O[C@H]([C@H](C)C[C@@H]2CC[C@@H](OC(=O)C(C)(CO)CO)[C@H](OC)C2)CC(=O)[C@H](C)/C=C(\C)[C@@H](O)[C@@H](OC)C(=O)[C@H](C)C[C@H](C)/C=C/C=C/C=C/1C

>  <recorded_endpoint>
drug sensitivity score

>  <recorded_result>
3.5

$$$$
>  <molecule>
C[C@]12CC[C@H](O)CC1=CC[C@@H]1[C@@H]2CC[C@]2(C)C(c3cccnc3)=CC[C@@H]12

>  <recorded_endpoint>
drug sensitivity score

>  <recorded_result>
0

$$$$
>  <molecule>
Nc1ncnc2c1nc(Cl)n2[C@@H]1O[C@H](CO)[C@@H](O)[C@H]1O

>  <recorded_endpoint>
drug sensitivity score

>  <recorded_result>
5.5

$$$$
>  <molecule>
O=C(CCCCCCNC(=O)c1cnc(N(c2ccccc2)c2ccccc2)nc1)NO

>  <recorded_endpoint>
drug sensitivity score

>  <recorded_result>
0.8

$$$$
>  <molecule>
CCCN(CCC)C(=O)C1=Cc2ccc(-c3ccc(C(=O)N4CCCC4)cc3)cc2N=C(N)C1

>  <recorded_endpoint>
drug sensitivity score

>  <recorded_result>
0

$$$$
>  <molecule>
O=C(Nc1cccnc1)N1CCC(Cc2cccc(Oc3ccc(C(F)(F)F)cn3)c2)CC1

>  <recorded_endpoint>
drug sensitivity score

>  <recorded_result>
0

$$$$
>  <molecule>
CNC(=O)c1ccccc1Nc1nc(Nc2ccc3c(c2OC)CCC[C@H](N2CCN(CCO)CC2)C3)ncc1Cl

>  <recorded_endpoint>
drug sensitivity score

>  <recorded_result>
8.3

$$$$
>  <molecule>
Cc1ccc(C(=O)N(CCCN)[C@@H](c2oc3cc(Cl)ccc3c(=O)c2Cc2ccccc2)C(C)C)cc1

>  <recorded_endpoint>
drug sensitivity score

>  <recorded_result>
2.4

$$$$
>  <molecule>
Cn1c(Nc2ccc(C(F)(F)F)cc2)nc2cc(Oc3ccnc(-c4ncc(C(F)(F)F)[nH]4)c3)ccc21

>  <recorded_endpoint>
drug sensitivity score

>  <recorded_result>
0

$$$$
>  <molecule>
Clc1ccc(C(c2ccccc2Cl)C(Cl)Cl)cc1 (centres undefined)

>  <recorded_endpoint>
drug sensitivity score

>  <recorded_result>
0

$$$$
>  <molecule>
Nc1nc(NC2CC2)cc(-c2cccc(Cl)c2Cl)n1

>  <recorded_endpoint>
drug sensitivity score

>  <recorded_result>
1.2

$$$$
>  <molecule>
NC(=O)NO [Hydroxyurea]

>  <recorded_endpoint>
drug sensitivity score

>  <recorded_result>
0.9

$$$$
>  <molecule>
CNc1nc(Nc2cn(C(C)(C)C#N)nc2C)ncc1C(F)(F)F

>  <recorded_endpoint>
drug sensitivity score

>  <recorded_result>
0

$$$$
>  <molecule>
CC(=O)[C@]1(O)Cc2c(O)c3c(c(O)c2[C@@H](O[C@H]2C[C@H](N)[C@H](O)[C@H](C)O2)C1)C(=O)c1ccccc1C3=O

>  <recorded_endpoint>
drug sensitivity score

>  <recorded_result>
6.3

$$$$
>  <molecule>
CC1(C)CC[C@]2(NC(=O)C(C)(F)F)CC[C@]3(C)[C@H](C(=O)C=C4[C@@]5(C)C=C(C#N)C(=O)C(C)(C)[C@@H]5CC[C@]43C)[C@@H]2C1

>  <recorded_endpoint>
drug sensitivity score

>  <recorded_result>
14

$$$$
>  <molecule>
C=CC(=O)N1CCC(Oc2cc3c(Nc4ccc(Cl)c(Cl)c4F)ncnc3cc2OC)CC1

>  <recorded_endpoint>
drug sensitivity score

>  <recorded_result>
16.7

$$$$
>  <molecule>
O=C(O)C(=O)O.[NH-][C@@H]1CCCC[C@H]1[NH-].[Pt+2]

>  <recorded_endpoint>
drug sensitivity score

>  <recorded_result>
14.9

$$$$
>  <molecule>
CCC1=C[C@@H]2CN(C1)Cc1c([nH]c3ccccc13)[C@@](C(=O)OC)(c1cc3c(cc1OC)N(C)[C@H]1[C@@](O)(C(=O)OC)[C@H](OC(C)=O)[C@]4(CC)C=CCN5CC[C@]31[C@@H]54)C2

>  <recorded_endpoint>
drug sensitivity score

>  <recorded_result>
17.9

$$$$

* * *

System: FMOC22 (patient-derived mucinous ovarian cancer cells)
method_notes: drug sensitivity score (DSS3, normalised partial AUC of % inhibition dose-response) (DSS (score)); higher = more sensitive (stronger inhibition of viability); extreme values may be limits of the assay
experimental_parameters: 72 h; library: FO5A; assay format: 2D, 384-well, CellTiter-Glo

>  <line_notation>
CCn1c(=O)c(-c2ccc(Cl)cc2Cl)cc2cnc(Nc3ccc(N4CCNCC4)c(F)c3)nc21

>  <drug sensitivity score>
0.1

$$$$
>  <line_notation>
CC[C@@H]1[C@H](F)C(=O)N[C@@H]1COc1nccc2cc(C(N)=O)c(OC)cc12

>  <drug sensitivity score>
0

$$$$
>  <line_notation>
Cn1nccc1Nc1nccc(-c2ccn([C@H](CO)c3ccc(Cl)c(F)c3)c(=O)c2)n1

>  <drug sensitivity score>
3.9

$$$$
>  <line_notation>
COc1cccc2c1C(=O)c1c(O)c3c(c(O)c1C2=O)C[C@@](O)(C(=O)CO)C[C@@H]3O[C@H]1C[C@H](N)[C@H](O)[C@H](C)O1

>  <drug sensitivity score>
4.5

$$$$
